Each entry below carries its recorded viability, T/C.
Tested on: 475296-252-R-J1-PDC spheroid viability
Experiment: Anticancer human tumor 475296-252-R-J1-PDC patient-derived rectal carcinoma cell line growth inhibition [PI3K]
Conditions: second compound 3.16 µM; first compound 0.1 µM; stronger effect = lower value; spheroids with HUVEC and MSC
Give the quantity in %, number only.

Below, each entry is followed by its recorded viability, T/C result.
{"COMPOUND": "CCN1CCN(Cc2ccc(Nc3ncc(F)c(-c4cc(F)c5nc(C)n(C(C)C)c5c4)n3)nc2)CC1 + CC(Nc1ncnc2nc[nH]c12)c1cc2cccc(Cl)c2c(=O)n1-c1ccccc1", "EXPERIMENTAL SYSTEM": "475296-252-R-J1-PDC spheroid viability", "viability, T/C / %": 102}
{"COMPOUND": "C=CC(=O)N1CCN(c2nc(=O)n(-c3c(C)ccnc3C(C)C)c3nc(-c4c(O)cccc4F)c(F)cc23)C(C)C1 (stereo unspecified) + CC(Nc1ncnc2nc[nH]c12)c1cc2cccc(Cl)c2c(=O)n1-c1ccccc1", "EXPERIMENTAL SYSTEM": "475296-252-R-J1-PDC spheroid viability", "viability, T/C / %": 92.9}
{"COMPOUND": "CC(=O)c1c(C)c2cnc(Nc3ccc(N4CCNCC4)cn3)nc2n(C2CCCC2)c1=O + Cc1nc(NC(=O)N2CCCC2C(N)=O)sc1-c1ccnc(C(C)(C)C(F)(F)F)c1", "EXPERIMENTAL SYSTEM": "475296-252-R-J1-PDC spheroid viability", "viability, T/C / %": 98.9}
{"COMPOUND": "CCN1CCN(Cc2ccc(Nc3ncc(F)c(-c4cc(F)c5nc(C)n(C(C)C)c5c4)n3)nc2)CC1 + Cc1nc(NC(=O)N2CCCC2C(N)=O)sc1-c1ccnc(C(C)(C)C(F)(F)F)c1", "EXPERIMENTAL SYSTEM": "475296-252-R-J1-PDC spheroid viability", "viability, T/C / %": 95}
{"COMPOUND": "CC(Cn1ccc(-c2ccc(C#N)c(Cl)c2)n1)NC(=O)c1cc(C(C)O)[nH]n1 (stereo unspecified) + CC(Nc1ncnc2nc[nH]c12)c1cc2cccc(Cl)c2c(=O)n1-c1ccccc1", "EXPERIMENTAL SYSTEM": "475296-252-R-J1-PDC spheroid viability", "viability, T/C / %": 95.8}

Problem: Let me know recorded viability, T/C for CCCS(=O)(=O)Nc1ccc(F)c(C(=O)c2c[nH]c3ncc(-c4ccc(Cl)cc4)cc23)c1F + Cc1nc(NC(=O)N2CCCC2C(N)=O)sc1-c1ccnc(C(C)(C)C(F)(F)F)c1 , thanks.
Result: 92.8

###

Each entry below carries its recorded viability, T/C.
System: 475296-252-R-J1-PDC spheroid viability
Test: Anticancer human tumor 475296-252-R-J1-PDC cell line growth inhibition [PI3K];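 further: spheroids exposed to agents for seven days before readout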
Conditions: second compound 0.1 µM; first compound 0.00316 µM; stronger effect = lower value; spheroids with HUVEC and MSC
Give the quantity in %, number only.

Below, each entry is followed by its recorded viability, T/C result.
{"COMPOUND": "Cn1ncnc1[C@H]1c2n[nH]c(=O)c3cc(F)cc(c23)N[C@@H]1c1ccc(F)cc1 + CC(Nc1ccc2c(c1)OCCn1cc(N3C(=O)OCC3C(F)F)nc1-2)C(N)=O", "EXPERIMENTAL SYSTEM": "475296-252-R-J1-PDC spheroid viability", "UNIT TEXT": "%", "viability, T/C": 93.6}
{"COMPOUND": "CC(C)n1nc(-c2ccc3oc(N)nc3c2)c2c(N)ncnc21 + CC(Nc1ccc2c(c1)OCCn1cc(N3C(=O)OCC3C(F)F)nc1-2)C(N)=O", "EXPERIMENTAL SYSTEM": "475296-252-R-J1-PDC spheroid viability", "UNIT TEXT": "%", "viability, T/C": 92}
{"COMPOUND": "CCN1CCN(Cc2ccc(Nc3ncc(F)c(-c4cc(F)c5nc(C)n(C(C)C)c5c4)n3)nc2)CC1 + COc1c(OCCCN2CCOCC2)ccc2c3n(c(=NC(=O)c4cnc(N)nc4)nc12)CCN3", "EXPERIMENTAL SYSTEM": "475296-252-R-J1-PDC spheroid viability", "UNIT TEXT": "%", "viability, T/C": 86.3}

Problem: Let me know recorded viability, T/C for Cn1ncnc1[C@H]1c2n[nH]c(=O)c3cc(F)cc(c23)N[C@@H]1c1ccc(F)cc1 + Cc1nc(NC(=O)N2CCCC2C(N)=O)sc1-c1ccnc(C(C)(C)C(F)(F)F)c1 , thanks.
Result: 94.7

Problem: Let me know recorded viability, T/C for CC(C)n1nc(-c2ccc3oc(N)nc3c2)c2c(N)ncnc21 + COc1c(OCCCN2CCOCC2)ccc2c3n(c(=NC(=O)c4cnc(N)nc4)nc12)CCN3 , thanks.
Result: 78.8

Problem: Let me know recorded viability, T/C for Cn1ncnc1[C@H]1c2n[nH]c(=O)c3cc(F)cc(c23)N[C@@H]1c1ccc(F)cc1 + COc1c(OCCCN2CCOCC2)ccc2c3n(c(=NC(=O)c4cnc(N)nc4)nc12)CCN3 , thanks.
Result: 94.8

Problem: Let me know recorded viability, T/C for CC(C)n1nc(-c2ccc3oc(N)nc3c2)c2c(N)ncnc21 + CC(Nc1ncnc2nc[nH]c12)c1cc2cccc(Cl)c2c(=O)n1-c1ccccc1 , thanks.
Result: 78

###

System: 475296-252-R-J1-PDC spheroid viability
Experiment: Anticancer human tumor 475296-252-R-J1-PDC cell line growth inhibition [PI3K];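 further: spheroids exposed to agents for seven days before readout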
Details: curve of first compound; second compound 3.16 µM; spheroids with HUVEC and MSC
Each entry below carries its recorded IC50.

{"COMPOUND": "CCN1CCN(Cc2ccc(Nc3ncc(F)c(-c4cc(F)c5nc(C)n(C(C)C)c5c4)n3)nc2)CC1 + Cc1nc(NC(=O)N2CCCC2C(N)=O)sc1-c1ccnc(C(C)(C)C(F)(F)F)c1", "RESULT": "> 1 µM"}
{"COMPOUND": "C[C@@H](NC(=O)c1ncnc(N)c1Cl)c1ncc(C(=O)Nc2cc(C(F)(F)F)c(Cl)cn2)s1 + Cc1nc(NC(=O)N2CCCC2C(N)=O)sc1-c1ccnc(C(C)(C)C(F)(F)F)c1", "RESULT": "> 10 µM"}
{"COMPOUND": "CC(C)n1nc(-c2ccc3oc(N)nc3c2)c2c(N)ncnc21 + CC(Nc1ncnc2nc[nH]c12)c1cc2cccc(Cl)c2c(=O)n1-c1ccccc1", "RESULT": "> 0.1 µM"}

Problem: Let me know recorded IC50 for CCCS(=O)(=O)Nc1ccc(F)c(C(=O)c2c[nH]c3ncc(-c4ccc(Cl)cc4)cc23)c1F + CC(Nc1ncnc2nc[nH]c12)c1cc2cccc(Cl)c2c(=O)n1-c1ccccc1 , thanks.
Result: > 10 µM

Problem: Let me know recorded IC50 for CC(Cn1ccc(-c2ccc(C#N)c(Cl)c2)n1)NC(=O)c1cc(C(C)O)[nH]n1 (stereo unspecified) + Cc1nc(NC(=O)N2CCCC2C(N)=O)sc1-c1ccnc(C(C)(C)C(F)(F)F)c1 , thanks.
Result: > 10 µM

Problem: Let me know recorded IC50 for CC(C)n1nc(-c2ccc3oc(N)nc3c2)c2c(N)ncnc21 + Cc1nc(NC(=O)N2CCCC2C(N)=O)sc1-c1ccnc(C(C)(C)C(F)(F)F)c1 , thanks.
Result: > 0.1 µM

Problem: Let me know recorded IC50 for CC(=O)c1c(C)c2cnc(Nc3ccc(N4CCNCC4)cn3)nc2n(C2CCCC2)c1=O + CC(Nc1ncnc2nc[nH]c12)c1cc2cccc(Cl)c2c(=O)n1-c1ccccc1 , thanks.
Result: > 0.1 µM

Problem: Let me know recorded IC50 for Cn1ncnc1[C@H]1c2n[nH]c(=O)c3cc(F)cc(c23)N[C@@H]1c1ccc(F)cc1 + Cc1nc(NC(=O)N2CCCC2C(N)=O)sc1-c1ccnc(C(C)(C)C(F)(F)F)c1 , thanks.
Result: > 0.1 µM

Problem: Let me know recorded IC50 for Cn1nccc1Nc1nccc(-c2ccn(C(CO)c3ccc(Cl)c(F)c3)c(=O)c2)n1 (stereo unspecified) + Cc1nc(NC(=O)N2CCCC2C(N)=O)sc1-c1ccnc(C(C)(C)C(F)(F)F)c1 , thanks.
Result: > 10 µM

Problem: Let me know recorded IC50 for C#Cc1c(F)ccc2cc(O)cc(-c3ncc4c(N5CC6CCC(C5)N6)nc(OCC56CCCN5CC(F)C6)nc4c3F)c12 (stereo unspecified) + CC(Nc1ncnc2nc[nH]c12)c1cc2cccc(Cl)c2c(=O)n1-c1ccccc1 , thanks.
Result: 3.95 µM

Problem: Let me know recorded IC50 for CNC(=O)c1ccc(N2C(=S)N(c3ccc(C#N)c(C(F)(F)F)c3)C(=O)C2(C)C)cc1F + Cc1nc(NC(=O)N2CCCC2C(N)=O)sc1-c1ccnc(C(C)(C)C(F)(F)F)c1 , thanks.
Result: > 10 µM
